Biological target: T1, CH2-4 constant domains of human IgE linked to a transmembrane protein, on 293 cells (human, UniProt P01854-1 104-428)
T1 construct: domain: CH2-4 constant domains; also called human IgE-expressing 293 cells
T1 sequence (P01854 other isoform, or with tags, fused parts or gaps): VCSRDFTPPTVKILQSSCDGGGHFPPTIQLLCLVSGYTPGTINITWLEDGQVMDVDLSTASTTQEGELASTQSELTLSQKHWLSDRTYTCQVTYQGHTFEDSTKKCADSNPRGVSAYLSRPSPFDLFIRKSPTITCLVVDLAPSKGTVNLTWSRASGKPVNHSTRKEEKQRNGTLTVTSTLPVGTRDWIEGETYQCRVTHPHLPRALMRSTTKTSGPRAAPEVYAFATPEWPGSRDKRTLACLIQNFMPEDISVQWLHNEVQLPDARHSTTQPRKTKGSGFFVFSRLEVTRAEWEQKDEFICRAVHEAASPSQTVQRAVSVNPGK
Experiment: flow cytometry, 293 cells expressing human IgE CH2-4
# maps each entry to its pKd
The read-out pKd is expressed as -log10 of concentration in moles per litre.

Sample answers from the record:
{"columns": ["Binder", "pKd"],
 "data": [
  ["hzB10v41-NNT (Fc fusion, monomeric) VHH-Fc: EVQLLESGGGEVQPGGSLRLSCVASGLTFSSYNMGWLRQAPGKEREFVGLSGSSSTSTYYAESVKGRFTISRDQSKNTVYLQMTSLRAEDTAVYYCAARRLLSTYWSDRSWDFWGQGTLVTVEPGGPSVFLFPPKPKDTLMISRTPEVTCVVVDVSHEDPEVKFNWYVDGVEVHNAKTKPREEQYNSTYRVVSVLTVLHQDWLNGKEYKCKVSNKALPAPIEKTISKAKGQPREPQVYTLPPSRDELTKNQVNLTCLVKGFYPSDIAVEWESNGQPENNYKTTPPVLDSDGSFFLNSTLTVDKSRWQQGNVFSCSVMHEALHNHYTQKSLSLSPGK", 8.65],
  ["hzB10v44-NNT (Fc fusion, monomeric) VHH-Fc: EVQLLESGGGEVQPGGSLRLSCVASGLTFSSYNMGWLRQAPGKEREFVGLSGSSSTSTYYAESVKGRFTISRDNTKNTVYLQMTSLRAEDTAVYYCAARRLLSTYWSDRSWDFWGQGTLVTVEPGGPSVFLFPPKPKDTLMISRTPEVTCVVVDVSHEDPEVKFNWYVDGVEVHNAKTKPREEQYNSTYRVVSVLTVLHQDWLNGKEYKCKVSNKALPAPIEKTISKAKGQPREPQVYTLPPSRDELTKNQVNLTCLVKGFYPSDIAVEWESNGQPENNYKTTPPVLDSDGSFFLNSTLTVDKSRWQQGNVFSCSVMHEALHNHYTQKSLSLSPGK", 8.62],
  ["B10-NNT (Fc fusion, monomeric; also called parental B10 monomeric VHH-hIgG1-Fc fusion (Fc NNT)) VHH-Fc: EVQLVQSGGELVQAGGSLRLSCVASGLTFSSYNMGWLRQAPGKEREFVGMSGSSSTSTYYADSVKGRFTISRDNSKNTVYLQMNSLKPEDTAVYYCAARRMLSTYWSDRSWDFWGQGTQVTVKPGGPSVFLFPPKPKDTLMISRTPEVTCVVVDVSHEDPEVKFNWYVDGVEVHNAKTKPREEQYNSTYRVVSVLTVLHQDWLNGKEYKCKVSNKALPAPIEKTISKAKGQPREPQVYTLPPSRDELTKNQVNLTCLVKGFYPSDIAVEWESNGQPENNYKTTPPVLDSDGSFFLNSTLTVDKSRWQQGNVFSCSVMHEALHNHYTQKSLSLSPGK", 8.88],
  ["hzB10v42-NNT (Fc fusion, monomeric) VHH-Fc: EVQLLESGGGEVQPGGSLRLSCVASGLTFSSYNMGWLRQAPGKEREFVGLSGSSSTSTYYAESVKGRFTISRDSSKNTVYLQMTSLRAEDTAVYYCAARRLLSTYWSDRSWDFWGQGTLVTVEPGGPSVFLFPPKPKDTLMISRTPEVTCVVVDVSHEDPEVKFNWYVDGVEVHNAKTKPREEQYNSTYRVVSVLTVLHQDWLNGKEYKCKVSNKALPAPIEKTISKAKGQPREPQVYTLPPSRDELTKNQVNLTCLVKGFYPSDIAVEWESNGQPENNYKTTPPVLDSDGSFFLNSTLTVDKSRWQQGNVFSCSVMHEALHNHYTQKSLSLSPGK", 8.64]
]}

API: the following record is the query input.
Reported pKd for hzB10v43-NNT (Fc fusion, monomeric) VHH-Fc: EVQLLESGGGEVQPGGSLRLSCVASGLTFSSYNMGWLRQAPGKEREFVGLSGSSSTSTYYAESVKGRFTISRDTSKNTVYLQMTSLRAEDTAVYYCAARRLLSTYWSDRSWDFWGQGTLVTVEPGGPSVFLFPPKPKDTLMISRTPEVTCVVVDVSHEDPEVKFNWYVDGVEVHNAKTKPREEQYNSTYRVVSVLTVLHQDWLNGKEYKCKVSNKALPAPIEKTISKAKGQPREPQVYTLPPSRDELTKNQVNLTCLVKGFYPSDIAVEWESNGQPENNYKTTPPVLDSDGSFFLNSTLTVDKSRWQQGNVFSCSVMHEALHNHYTQKSLSLSPGK : what is it? 8.66
